# tgt: Corticotropin-releasing factor receptor 2/Corticotropin-releasing factor-binding protein (Homo sapiens, UniProt P24387+Q13324)
# Sequence (Q13324 whole entry): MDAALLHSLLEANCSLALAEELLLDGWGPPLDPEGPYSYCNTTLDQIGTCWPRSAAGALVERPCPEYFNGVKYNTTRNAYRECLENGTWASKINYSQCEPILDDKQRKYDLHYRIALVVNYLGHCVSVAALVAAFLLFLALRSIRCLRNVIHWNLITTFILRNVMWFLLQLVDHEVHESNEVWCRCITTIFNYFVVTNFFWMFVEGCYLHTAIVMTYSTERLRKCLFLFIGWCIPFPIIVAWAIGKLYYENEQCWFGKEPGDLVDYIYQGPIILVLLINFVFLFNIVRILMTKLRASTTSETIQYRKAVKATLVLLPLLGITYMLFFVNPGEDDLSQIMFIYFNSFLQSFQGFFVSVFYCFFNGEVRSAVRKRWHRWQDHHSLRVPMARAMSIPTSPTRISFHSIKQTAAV
# Sequence (P24387 whole entry): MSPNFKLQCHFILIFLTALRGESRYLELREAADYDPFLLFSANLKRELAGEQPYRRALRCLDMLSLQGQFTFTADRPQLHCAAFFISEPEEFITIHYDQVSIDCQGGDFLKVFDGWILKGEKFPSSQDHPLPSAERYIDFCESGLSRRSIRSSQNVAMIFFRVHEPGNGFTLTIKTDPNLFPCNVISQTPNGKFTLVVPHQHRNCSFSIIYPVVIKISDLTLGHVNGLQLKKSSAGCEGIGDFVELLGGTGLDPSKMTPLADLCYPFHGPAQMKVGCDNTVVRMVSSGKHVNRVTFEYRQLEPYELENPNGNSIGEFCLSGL
# procedure_text: activators of CRF receptor 2 with binding protein – uHTS hits, confirmation (AID 602473)
# Format: functional
# details: read-out: EC50_Mean
Active and inactive are the calls of the source.
Below is a list of entries, each paired with its recorded EC50 value.

O=C(OCCN1C(=O)c2ccccc2C1=O)c1cccc(OC(F)F)c1: > 53 µM (inactive)
CCCNCCC(c1ccco1)c1ccccc1OC (stereo not given): > 53 µM (inactive)
CC(C)(CNC(=O)c1cc(Cl)c(O)c(Cl)c1)N1CCCCC1: > 53 µM (inactive)
O=c1c2ccccc2nc(N2CCCC2)n1-c1ccc(Cl)cc1: > 53 µM (inactive)
Cc1nnc2n(Cc3ccccc3)c(=O)c3c4c(sc3n12)COC(C)(C)C4: > 53 µM (inactive)

-- ask I would be grateful if you could share the reported EC50 for `Cc1nn(-c2ccccc2)c(N2CCCC2)c1/C=N/Nc1ccc(S(N)(=O)=O)cc1[N+](=O)[O-]` .
-- reply > 53 µM (inactive)

-- ask Consider next the compound `O=C(NC(=S)Nc1c(Cl)ccc2nsnc12)c1ccccc1F` in the same way.
-- reply > 53 µM (inactive)

-- ask Consider next the compound `CC(=O)c1ccc(NC(=O)CSc2ccc(-c3ccc4c(c3)OCO4)nn2)cc1` in the same way.
-- reply > 53 µM (inactive)

-- ask Consider next the compound COc1ccc(C(=O)OCC(=O)N(C)C2CCS(=O)(=O)C2)cc1S(=O)(=O)N(C)Cc1ccccc1 (stereo not given) in the same way.
-- reply > 53 µM (inactive)

-- ask Consider next the compound `O=C(CCC(=O)N1CCOc2ccc(Cl)cc21)NCc1ccccc1` in the same way.
-- reply > 53 µM (inactive)

---

# Test system: H4
# procedure_text: Luminescence Cell-Based Dose Response HTS to Identify Activators of 5'UTR Stem-Loop Driven Prion Protein mRNA Translation in H4 Neuroglioblastoma Cells. [Related pubchem assays: 1829 (Project Summary), 1814 (Primary HTS)]
# Assay type: functional
# details: Homo sapiens
Activity calls are given as the source filed them.
property_name: EC50

See these solved cases before continuing.
CCOC(=O)C1=C(c2ccccc2)OC(N)=C(C#N)C1C(C)C (centres undefined): > 120 µM (not active)
Fc1ccc(CSc2nnc(-c3ccccn3)o2)cc1: 0.175 µM (active)
Cc1cccc(-c2cc3nc4c(c(N5CCOCC5)n3n2)CCCC4)c1: < 0.1 µM (active)
Cc1ccnc(SCc2nc3ccccc3s2)n1: 6.54 µM (active)
Cc1cccc(N(C(=O)c2nsc(Cl)c2Cl)C(C(=O)NC2CCCC2)c2ccc(O)cc2)c1 (centres undefined): > 120 µM (not active)
CC1(C)SC(=S)N(NC(=O)Nc2cccc3ccccc23)C1N(O)C(=O)Nc1ccccc1 (centres undefined): > 120 µM (not active)
COc1cc(/C=N/NC(=S)NC2CC3CC2C2C=CCC32)ccc1O (centres undefined): > 120 µM (not active)
O=C1Nc2ccccc2S/C1=C/Nc1cccc(Cl)c1: > 120 µM (not active)

-- ask I would be grateful if you could share the reported EC50 for `Cc1ccc(NC(=O)Cn2nnc3ccccc32)cc1` .
-- reply 111 µM (active)

---

# tgt: Rac GTPase-activating protein 1 (Homo sapiens)
# Sequence (Q9H0H5 whole entry): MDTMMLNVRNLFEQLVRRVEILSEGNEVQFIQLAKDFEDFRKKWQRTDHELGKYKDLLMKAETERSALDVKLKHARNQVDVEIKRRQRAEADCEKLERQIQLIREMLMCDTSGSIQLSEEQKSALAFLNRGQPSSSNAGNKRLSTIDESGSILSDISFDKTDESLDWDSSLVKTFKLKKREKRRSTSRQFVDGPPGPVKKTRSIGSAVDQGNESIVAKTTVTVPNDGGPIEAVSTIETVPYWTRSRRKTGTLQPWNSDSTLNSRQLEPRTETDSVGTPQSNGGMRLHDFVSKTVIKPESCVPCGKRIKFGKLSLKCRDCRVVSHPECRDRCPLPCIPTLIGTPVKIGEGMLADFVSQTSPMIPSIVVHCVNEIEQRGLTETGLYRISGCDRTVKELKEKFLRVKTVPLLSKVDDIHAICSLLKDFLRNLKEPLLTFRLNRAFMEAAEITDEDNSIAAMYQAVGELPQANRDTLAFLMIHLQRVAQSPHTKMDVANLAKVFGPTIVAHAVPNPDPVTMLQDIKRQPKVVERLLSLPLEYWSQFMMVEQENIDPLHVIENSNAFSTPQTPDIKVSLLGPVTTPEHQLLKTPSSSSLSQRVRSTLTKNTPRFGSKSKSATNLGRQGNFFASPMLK
# procedure_text: blockers of MgcRacGAP-driven Rac1 GTP hydrolysis – biochemical, ADP Hunter fluorescence, primary and confirmatory, confirmation (AID 624330)
# Type: functional
Activity calls are given as the source filed them.
property_name: IC50

See these solved cases before continuing.
O=C(COc1ccc(Nc2ccccc2)cc1)OCC(=O)N1CCCCC1: 98.2 µM (active)
O=C(NN=Cc1ccc(O)cc1O)c1ccccc1NS(=O)(=O)c1cccs1: 110 µM (active)
O=C(CCCC(=O)c1ccccc1)Nc1ccc(O)cc1: 15.8 µM (active)
CCCCN(CCCC)CCNC(=O)CSCc1ccc(C)cc1: 147 µM (active)
Cc1cc(C(=O)NNC(=O)/C=C/c2ccco2)c(C)o1: 125 µM (active)
COc1ccc(OC(=O)c2cc(S(=O)(=O)N3CCCC3)ccc2Cl)cc1: 63 µM (active)
O=C(/C=C/c1ccc(O)c(O)c1)c1ccc(S(=O)(=O)N2CCCCCC2)cc1: 82 µM (active)
Sc1nnc(-c2ccncc2)n1/N=C/C=C/c1ccccc1: 125 µM (active)

-- ask I would be grateful if you could share the reported IC50 for C=C(CN(C)C)C(=O)c1ccc(OC2OC(COC(C)=O)C(OC(C)=O)C(OC(C)=O)C2OC(C)=O)cc1 (stereo unspecified) .
-- reply 162 µM (active)

-- ask Consider next the compound `Cc1nc2ccccc2n2c(O)c(CC(=O)O)cc12` in the same way.
-- reply 35 µM (active)

-- ask Consider next the compound COc1cc(/C=N/NC(=O)CC2C(=O)NN=C2C)ccc1O (stereo unspecified) in the same way.
-- reply 53.7 µM (active)

---

# tgt: DNA dC->dU-editing enzyme APOBEC-3G (Homo sapiens)
# Sequence (Q9HC16 whole entry): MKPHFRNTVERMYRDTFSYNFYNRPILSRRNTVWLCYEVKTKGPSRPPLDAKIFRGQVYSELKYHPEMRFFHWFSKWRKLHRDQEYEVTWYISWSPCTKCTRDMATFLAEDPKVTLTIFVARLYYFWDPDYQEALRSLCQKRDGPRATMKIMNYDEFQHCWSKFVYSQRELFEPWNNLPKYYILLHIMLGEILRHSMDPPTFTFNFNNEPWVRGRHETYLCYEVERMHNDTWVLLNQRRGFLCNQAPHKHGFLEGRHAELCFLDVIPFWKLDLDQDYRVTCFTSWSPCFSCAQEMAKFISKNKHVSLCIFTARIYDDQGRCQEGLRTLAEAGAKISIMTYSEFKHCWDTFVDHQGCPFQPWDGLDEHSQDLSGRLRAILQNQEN
# procedure_text: Dose Response confirmation of small molecule APOBEC3G DNA Deaminase Inhibitors via a fluorescence-based single-stranded DNA deaminase assay. [Related pubchem assays (depositor defined):AID493012, AID493028]
# Assay type: functional
Activity calls are given as the source filed them.
property_name: IC50

See these solved cases before continuing.
Cc1cc(-c2nnc(S)n2/N=C/c2ccco2)[nH]n1: 14.2 µM (active)
O=C(CSc1ccccc1)Nc1nnc(COc2ccc(Cl)cc2)s1: 32.3 µM (active)
C=C(C)C(=O)Nc1cccc(C2=NOC3(C2)C[C@@H](C(N)=O)N(C(=O)[C@H]2CCC(=O)N2)C3)c1 (stereo not given in full): 19.3 µM (active)
N#C/C(=C\c1ccc(O)c(O)c1)C(=O)Nc1cccc2ncccc12: 3.81 µM (active)

Note: attention shifts to another entry.
-- ask I would be grateful if you could share the reported IC50 for `Sc1nnc(-c2ccncc2)n1/N=C/C=C/c1ccccc1` .
-- reply 2.76 µM (active)

---

# tgt: Cytochrome P450 2C19 (Homo sapiens)
# Sequence (P33261 whole entry): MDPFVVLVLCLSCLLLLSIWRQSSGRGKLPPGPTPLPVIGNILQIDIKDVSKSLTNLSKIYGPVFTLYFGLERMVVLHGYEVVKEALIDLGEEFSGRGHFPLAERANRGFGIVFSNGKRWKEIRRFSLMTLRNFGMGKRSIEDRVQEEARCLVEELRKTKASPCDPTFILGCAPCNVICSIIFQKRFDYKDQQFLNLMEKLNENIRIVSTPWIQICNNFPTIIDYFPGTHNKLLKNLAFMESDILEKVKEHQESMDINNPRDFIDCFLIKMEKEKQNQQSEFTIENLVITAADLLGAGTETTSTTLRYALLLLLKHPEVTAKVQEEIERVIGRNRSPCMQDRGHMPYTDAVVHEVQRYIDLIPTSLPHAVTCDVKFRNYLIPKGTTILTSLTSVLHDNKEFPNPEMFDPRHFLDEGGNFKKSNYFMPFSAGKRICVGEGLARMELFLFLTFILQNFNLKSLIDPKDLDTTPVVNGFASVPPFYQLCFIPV
# procedure_text: Cytochrome panel assay with activity outcomes. Panel member name: p450-cyp2c19 Compounds with AC50 equal or less than 10 uM are considered active
# Format: functional
# details: read-out: AC50
Below is a list of entries, each paired with its recorded AC50 value.

CCSc1ncc(/C=N/Nc2ccc(F)cc2)n1C: 0.0794 µM (inconclusive)
COc1cccc(/C=N\NC(=O)c2cc(OCC(F)(F)F)ccc2OCC(F)(F)F)c1: 0.891 µM (inconclusive)
COc1ccc(-n2c3c(c(=O)[nH]c2=O)C(C(F)(F)F)(C(F)(F)F)NC(CC(C)C)=N3)cc1: 10 µM (inconclusive)
O=C(c1cn(-c2ccccc2)nc1-c1cccs1)N1CCOCC1: 39.8 µM (inconclusive)
Cn1cnnc1SCC(=O)OCN1C(=O)c2ccccc2C1=O: 10 µM (inconclusive)

Note: attention shifts to another entry.
-- ask Value wanted: AC50 (Cytochrome P450 2C19 (Homo sapiens)) of entry CCc1ccc(N(C(=O)CNC(=O)c2cccs2)C(C(=O)NC(C)(C)C)c2cc(OC)c(OC)c(OC)c2)cc1 (stereo unspecified)
-- reply 0.00794 µM (inconclusive)

---

# tgt: Glucose-6-phosphate 1-dehydrogenase (Homo sapiens)
# Sequence (P11413 whole entry): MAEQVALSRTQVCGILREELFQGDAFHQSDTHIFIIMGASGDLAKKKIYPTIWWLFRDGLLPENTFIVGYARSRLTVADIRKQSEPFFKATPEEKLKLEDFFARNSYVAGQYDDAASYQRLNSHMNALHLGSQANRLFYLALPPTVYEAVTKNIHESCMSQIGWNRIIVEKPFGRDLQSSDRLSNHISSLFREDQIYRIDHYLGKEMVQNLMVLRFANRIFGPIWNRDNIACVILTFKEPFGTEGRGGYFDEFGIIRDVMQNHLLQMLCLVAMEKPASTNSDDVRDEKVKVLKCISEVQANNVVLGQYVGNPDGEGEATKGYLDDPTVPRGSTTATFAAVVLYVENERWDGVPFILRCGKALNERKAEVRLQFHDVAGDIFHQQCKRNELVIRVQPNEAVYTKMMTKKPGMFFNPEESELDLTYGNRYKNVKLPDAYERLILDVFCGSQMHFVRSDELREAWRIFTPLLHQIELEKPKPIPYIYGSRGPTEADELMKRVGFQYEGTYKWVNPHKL
# procedure_text: inhibition of Homo sapiens G6PD, dose series – biochemical, fluorescence, selectivity assay for P. falciparum G6PD inhibitor project, dose response (AID 504792)
# Format: functional
Active and inactive are the calls of the source.
Below is a list of entries, each paired with its recorded IC50 value.

See these solved cases before continuing.
C[C@]12CC[C@@H]3c4cc(O)c(O)cc4CC[C@H]3[C@@H]1CC[C@@H]2O: 72.5 µM (inactive)
COc1ccc(N2C(=O)/C(=C/c3cccs3)NC2=S)cc1: > 80 µM (inactive)
N#C/C(C(=O)Nc1ccc(Cl)cc1)=C(/S)Nc1ccccc1: 52 µM (inactive)
N#CC1=C(N)Oc2c(O)cc3ccccc3c2C1c1ccsc1 (centres undefined): > 80 µM (inactive)

-- ask I would be grateful if you could share the reported IC50 for `COc1ccc(C(=O)Nc2sc3c(c2C(=O)O)CC(C)(C)OC3)cc1` .
-- reply > 80 µM (inactive)

-- ask Consider next the compound `COc1c(O)c(O)c2oc(-c3ccccc3)cc(=O)c2c1OC` in the same way.
-- reply > 80 µM (inactive)

-- ask Consider next the compound `O=C(O)CSc1cc(NS(=O)(=O)c2ccc(Cl)cc2)c2ccccc2c1O` in the same way.
-- reply 29.9 µM (inactive)

-- ask Consider next the compound `O=C(Nc1nnc(S(=O)(=O)N2CCOCC2)s1)c1cccc(Br)c1` in the same way.
-- reply > 80 µM (inactive)

-- ask Consider next the compound `Cc1ccsc1/C=N/NC(=O)c1cccc(S(=O)(=O)Nc2ccccc2Cl)c1` in the same way.
-- reply > 80 µM (inactive)

---

A short record of AC50 observed with Cytochrome P450 2D6 (Homo sapiens) follows.
Sequence (P10635 whole entry): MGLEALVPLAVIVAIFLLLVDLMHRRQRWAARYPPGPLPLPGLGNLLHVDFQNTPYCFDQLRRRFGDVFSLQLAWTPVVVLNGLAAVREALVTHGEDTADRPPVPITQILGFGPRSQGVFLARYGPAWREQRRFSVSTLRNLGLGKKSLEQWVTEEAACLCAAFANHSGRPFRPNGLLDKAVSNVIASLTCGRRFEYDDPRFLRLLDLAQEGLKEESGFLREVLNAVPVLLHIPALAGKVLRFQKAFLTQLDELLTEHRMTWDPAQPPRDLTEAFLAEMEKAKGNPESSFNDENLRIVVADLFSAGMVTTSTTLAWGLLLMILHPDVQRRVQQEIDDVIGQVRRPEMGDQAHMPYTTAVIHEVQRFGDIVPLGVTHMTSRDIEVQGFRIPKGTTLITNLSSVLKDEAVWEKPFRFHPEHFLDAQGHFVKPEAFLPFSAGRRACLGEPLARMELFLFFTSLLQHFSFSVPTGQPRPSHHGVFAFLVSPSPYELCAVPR

See these solved cases before continuing.
COc1cccc(C(=O)Nc2cc(C(F)(F)F)ccc2Cl)c1: 28.2 µM (inconclusive)
CC1CCN(CCc2nc3cc(NC(=O)NC4CCCCC4)ccc3n2C)CC1: 25.1 µM (inconclusive)
CCSc1nnc(NC(=O)C(C(F)(F)F)C(F)(F)F)s1: 25.1 µM (inconclusive)
CCC[C@@H]1C[C@@]1(CCC)C(NS(=O)(=O)c1cccc2cccnc12)c1ccc(Cl)cc1 (stereo partly specified): 39.8 µM (inconclusive)
CCCCOc1ccc(CNn2c(C)nc3ccccc3c2=O)cc1: 7.94 µM (inconclusive)

Note: attention shifts to another entry.
-- ask I would be grateful if you could share the reported AC50 for `COc1ccc(COC(=O)N/N=C2/C[C@@H](O)[C@@H](O)[C@@H]3[C@@H]4C(=O)N(c5cccc(Oc6ccccc6)c5)C(=O)[C@H]4CC[C@H]23)cc1` .
-- reply 2.51 µM (inconclusive)
